# Test system: ATP;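 also: ATP exposure 15 min at 22 °C before imaging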
# ASSAY OVERVIEW: switch fluorescence ratio, 500 uM ATP over buffer (Cy3 cluster intensity, sum of 5 cycles each) (fold (ratio)); higher = stronger signal-on switching upon ATP binding; sequences stand for … in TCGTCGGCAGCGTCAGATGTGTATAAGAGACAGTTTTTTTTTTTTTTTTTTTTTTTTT…TC
# CONDITIONS USED: aptamer strand: ATP DNA aptamer (quencher-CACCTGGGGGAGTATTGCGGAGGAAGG + anchor), 100 nM annealed; ATP concentration: 500 uM
Record form. Attribute: switch fluorescence ratio. Fill in for each entry.
Give bare numbers.

MONOMER SEQUENCE: GCTATTGAAA
switch fluorescence ratio: 0.992
--
MONOMER SEQUENCE: CAGAGGAGGC
switch fluorescence ratio: 0.987
--
MONOMER SEQUENCE: AAAGGGCGGC
switch fluorescence ratio: 0.992
--
MONOMER SEQUENCE: ACTTTGGCGG
switch fluorescence ratio: 0.981
--
MONOMER SEQUENCE: CAGGAAAATT
switch fluorescence ratio: 1
--
MONOMER SEQUENCE: TAAAAAAGAA
switch fluorescence ratio: 0.97
--
MONOMER SEQUENCE: GGACGGGGGG
switch fluorescence ratio: 1.01
--
MONOMER SEQUENCE: TTTTAGCTGG
switch fluorescence ratio: 1

Provide reported switch fluorescence ratio for each item, in the same order as listed.
1. TAAAATTTTA
2. ACTTGACCCG
3. ACTTTAGGGG
4. CGTATGATAG
5. GATGGCGGGG
6. AGAAAAAGGG

stdout:
0.988
1.08
1.06
1.01
0.981
1.01

Provide reported switch fluorescence ratio for each item, in the same order as listed.
1. CCTCAAAGCT
2. ATATAGTTGT
3. AACCAAGGTT
4. ATAGGGAGGT
5. TTAGGGCATT
6. CTATATAGGT

stdout:
1. 1.79
2. 0.999
3. 1.05
4. 1.01
5. 1.11
6. 1.01

###

Record form. Attribute: switch fluorescence ratio. Fill in for each entry.
# Test system: ATP;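 also: ATP exposure 15 min at 22 °C before imaging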
# ASSAY OVERVIEW: switch fluorescence ratio, 500 uM ATP over buffer (Cy3 cluster intensity, sum of 5 cycles each) (fold (ratio)); higher = stronger signal-on switching upon ATP binding; sequences stand for … in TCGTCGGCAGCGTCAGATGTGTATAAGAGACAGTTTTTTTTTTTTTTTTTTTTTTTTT…TC
# CONDITIONS USED: aptamer strand: ATP DNA aptamer (quencher-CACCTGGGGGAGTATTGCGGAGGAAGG + anchor), 100 nM annealed; ATP concentration: 500 uM

MONOMER SEQUENCE: AATGGCGTTG
RESULT: 1
//
MONOMER SEQUENCE: TCCATTTGGA
RESULT: 1.02
//
MONOMER SEQUENCE: CGGTGGGCTA
RESULT: 1.01
//
MONOMER SEQUENCE: TGTAAATTTT
RESULT: 1.03
//
MONOMER SEQUENCE: GACTTTATGG
RESULT: 0.99

Provide reported switch fluorescence ratio for each item, in the same order as listed.
1. TAGGGGTTGC
2. GAATAGTCAG
3. TGAGTTCGGC
4. TTCTTTTTCG
5. GGGGGTCCGT
6. TTTCTGTAAG

stdout:
1.1
0.978
1.03
0.973
1
1.01

Provide reported switch fluorescence ratio for each item, in the same order as listed.
1. AATGATTGTT
2. TCACGTTGTT

stdout:
1. 0.992
2. 0.981

Provide reported switch fluorescence ratio for each item, in the same order as listed.
1. GAAGATTGGT
2. CGTACGAAGG
3. TGATGCTCGG
4. TCGGTGAGAG
5. TTTGTTTGG
6. AGGGATGTAA
7. TAATGGTGTG

stdout:
1: 0.981; 2: 0.971; 3: 0.996; 4: 1.03; 5: 1; 6: 0.992; 7: 1

Provide reported switch fluorescence ratio for each item, in the same order as listed.
1. GGGTTATTAG
2. TTGTTGGAGG
3. CGTTAAGTGG
4. CGTCCTGGGG
5. TTGGGCTTTC

stdout:
1: 0.986; 2: 0.982; 3: 0.973; 4: 1.12; 5: 1.04
